# Measurement Target: T1, human melanocortin-5 receptor (human, UniProt P33032 1-325)
# T1 construct: whole, on cells; Ki assays used cellular membranes of the CHO-K1 cells; cAMP assays used the whole cells; also called hMC5; hMC-R receptor subtype 5
# T1 sequence (P33032 whole entry): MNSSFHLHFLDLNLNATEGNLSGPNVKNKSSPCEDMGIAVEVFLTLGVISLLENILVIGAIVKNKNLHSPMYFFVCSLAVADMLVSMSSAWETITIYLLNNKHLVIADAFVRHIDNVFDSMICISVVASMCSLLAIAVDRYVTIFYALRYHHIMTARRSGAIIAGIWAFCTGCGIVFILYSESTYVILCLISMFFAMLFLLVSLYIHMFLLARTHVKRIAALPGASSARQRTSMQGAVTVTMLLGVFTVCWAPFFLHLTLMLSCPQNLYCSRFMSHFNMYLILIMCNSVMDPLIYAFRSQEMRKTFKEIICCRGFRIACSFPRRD
# Protocol Summary: competition with [125I]-NDP-alpha-MSH, CHO-K1 cell membranes
Task for the reader: assign each of the following binders its reported pKi.
One number for each entry, as −log10 of the molar value.

Solved entries:
INSERT INTO assay_data (binder, quantity_kind, measured_result) VALUES
  ('CEHXRWC (not fully specified; hydantoin ring from Nle 1, C(O) and the amino group of Gly 2; Nle 1; D-Phe 6; disulfide Cys 3-Cys 9 (cyclo); C-terminal amide, residue 6 here is D-Phe; also called Compound F) [Hydantoin(C(O)-(Nle-Gly))-cyclo(Cys-Glu-His-D-Phe-Arg-Trp-Cys)-NH2]', 'pKi', 7.17),
  ('EHXRWC (not fully specified; hydantoin ring from Gly 1, C(O) and the amino group of Cys 2; D-Phe 5; disulfide Cys 2-Cys 8 (cyclo); C-terminal amide) [cyclo[Hydantoin(C(O)-(Gly-Cys))-Glu-His-D-Phe-Arg-Trp-Cys]-NH2]', 'pKi', 5.51),
  ('CEHXRWC (not fully specified; hydantoin ring from Gly 1, C(O) and the amino group of Gly 2; D-Phe 6; disulfide Cys 3-Cys 9 (cyclo); C-terminal amide, residue 6 here is D-Phe) [Hydantoin(C(O)-(Gly-Gly))-cyclo(Cys-Glu-His-D-Phe-Arg-Trp-Cys)-NH2]', 'pKi', 7.13),
  ('CEHXRWC (hydantoin ring from Gly 1, C(O) and the amino group of Arg 2; D-Phe 6; disulfide Cys 3-Cys 9 (cyclo); C-terminal amide, residue 6 here is D-Phe; also called Compound E) [Hydantoin(C(O)-(Gly-Arg))-cyclo(Cys-Glu-His-D-Phe-Arg-Trp-Cys)-NH2]', 'pKi', 5.37);

Query binder follows.
Consider the binder shown here: CEHXRWC (not fully specified; hydantoin ring from Arg 1, C(O) and the amino group of Gly 2; D-Phe 6; disulfide Cys 3-Cys 9 (cyclo); C-terminal amide, also called Compound C) [Hydantoin(C(O)-(Arg-Gly))-cyclo(Cys-Glu-His-D-Phe-Arg-Trp-Cys)-NH2] What is its recorded pKi?
5.11
